- assay: physchem
- studyConditions: water
reportedProperty: solubility (µg/mL)
Answers are plain numbers, in µg/mL.

CCC1=C(C)c2cc3[nH]c(cc4nc(c5c6[nH]c(cc1n2)c(C)c6C(=O)C5)[C@@H](CCC(=O)O)[C@@H]4C)c(C)c3CC [(36), mesopyropheophorbide a] yielded solubility of 40
